compounds and their reported IC50
Target: KDM4C (JMJD2C) (Homo sapiens, UniProt Q9H3R0)
Sequence (Q9H3R0 1-349): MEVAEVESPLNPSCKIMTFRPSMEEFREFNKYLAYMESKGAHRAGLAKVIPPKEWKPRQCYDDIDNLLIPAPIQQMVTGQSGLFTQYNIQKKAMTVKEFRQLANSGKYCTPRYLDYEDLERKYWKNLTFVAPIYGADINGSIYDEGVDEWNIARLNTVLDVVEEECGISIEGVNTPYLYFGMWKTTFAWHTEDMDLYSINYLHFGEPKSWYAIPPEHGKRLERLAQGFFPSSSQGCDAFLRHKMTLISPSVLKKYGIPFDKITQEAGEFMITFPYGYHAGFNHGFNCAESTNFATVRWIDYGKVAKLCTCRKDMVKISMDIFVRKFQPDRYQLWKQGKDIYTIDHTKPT

Compound: O=C(O)c1ccnc(CN2CCCC(c3ccccc3)C2CO)c1 (stereo not drawn)
IC50: > 2.5 µM

Query string: Need IC50, item COc1ccc([C@@H](C)N2CC[C@H](CNCc3cc(C(=O)O)ccn3)C2=O)cc1
Result string: < 0.25 µM

Query string: Need IC50, item O=C(O)c1ccnc(CNC2CCCn3ccnc32)c1 (stereo not drawn)
Result string: 0.25 to 2.5 µM

Query string: Need IC50, item C[C@H](c1ccccc1)N1CC[C@@H](CNCc2cc(C(=O)O)ccn2)C1=O
Result string: 0.25 to 2.5 µM

Query string: Need IC50, item O=C(N1CC2(CC2)COC1c1ccnc(CN2CCCn3ccnc3C2)c1)C(F)(F)F (stereo not drawn)
Result string: 0.25 to 2.5 µM

Query string: Need IC50, item CCN1CCC(CNCc2cc(C(=O)O)ccn2)C1=O (stereo not drawn)
Result string: 0.25 to 2.5 µM
